Item-by-item account of log10 of IC50
Molecular target: Glycogen synthase kinase-3 (Sus scrofa, UniProt B2LUN4+I6LNT8)
Assay: Inhibition of porcine brain GSK-3alpha/beta using YRRAAVPPSPSLSRHSSPHQpSEDEEE as substrate and [gamma-33P]-ATP after 30 mins by scintillation counting
Recorded IC50 (log10, nM)

Reference set, count: 3
                                   compound  data_value
0  Cc1cc(NC(=O)Nc2cccc3c2C2CCCCN2C3=O)no1 (stereo not given)        2.52
1  O=C(Nc1cc[nH]n1)Nc1cccc2c1C1CCCCN1C2=O (stereo not given)        2.67
2  O=C(Nc1ccc2cccc(O)c2n1)Nc1cccc2c1C1CCCCN1C2=O (stereo not given)        2.18

Entry under test: O=C(Nc1cccc2c1C1CCCCN1C2=O)Nc1ncccc1O (stereo not given) . Its log10 of IC50 was 1.71

The recorded log10 of IC50 for O=C(Nc1cc(O)c2ccccc2n1)Nc1cccc2c1C1CCCCN1C2=O (stereo not given) is 3.08

Record O=C(Nc1cccc2c1C1CCCCN1C2=O)Nc1ncc(F)cc1F (stereo not given) , field log10 of IC50: 2.30

Just so you know, measured log10 of IC50 for O=C(Nc1nc2ccccc2s1)Nc1cccc2c1C1CCCCN1C2=O (stereo not given) came out at 3.54

Value of measured log10 of IC50 for the entry O=C(Nc1cccc(N2CCCCC2)n1)Nc1cccc2c1C1CCCCN1C2=O (stereo not given) : 2.56

Per the record, O=C(Nc1csc(-c2ccncc2)n1)Nc1cccc2c1C1CCCCN1C2=O (stereo not given) has log10 of IC50 of 2.11

Query O=C(Nc1cc(-c2ccccc2)on1)Nc1cccc2c1C1CCCCN1C2=O (stereo not given) yields log10 of IC50 of 2.43

Summary for this compound, O=C(Nc1ccncn1)Nc1cccc2c1C1CCCCN1C2=O (stereo not given) : log10 of IC50 is 2.58

====

pIC50 for assorted compounds
Test system: Huh-7
Test: cells
Conditions: Homo sapiens, Huh-7, 48 h
Description: Cytotoxicity against human HuH7 cells after 48 hrs
# pIC50: negative log10 of molar concentration; output just the value

So, O=C(Nc1cccc(F)n1)Nc1cccc2c1C1CCCCN1C2=O (stereo not given) ? Its pIC50 was 6.92

Measured pIC50 of O=C(Nc1cc(Br)ccn1)Nc1cccc2c1C1CCCCN1C2=O (stereo not given) : 5.30

Form: compound = O=C(Nc1cc2ccccc2cn1)Nc1cccc2c1C1CCCCN1C2=O (stereo not given) ; pIC50 = 5.70

O=C(Nc1cccc2c1C1CCCCN1C2=O)Nc1ncccc1O (stereo not given) yielded pIC50 of 6.30

====

Test system: HCT-116
Experiment: cells
Conditions: Homo sapiens, HCT-116, 48 h
Description: Cytotoxicity against human HCT116 cells after 48 hrs
readout kind: IC50 (µM)
API: value field is a number in µM; no unit string.

                                   compound  display_unit  data_value
0  O=C(Nc1cccc2c1C1CCCCN1C2=O)Nc1ncccc1O (stereo not given)            µM           1

The compound identified as O=C(Nc1cccc(F)n1)Nc1cccc2c1C1CCCCN1C2=O (stereo not given) registered its IC50 at 0.09

Measured IC50, O=C(Nc1cc(Br)ccn1)Nc1cccc2c1C1CCCCN1C2=O (stereo not given) : 0.1

Value of IC50 reported for the compound O=C(Nc1cc2ccccc2cn1)Nc1cccc2c1C1CCCCN1C2=O (stereo not given) is 1

Data origin: ChEMBL document CHEMBL2177089
